system: T1, human RANKL protein (human, UniProt O14788 140-317, limits assumed)
T1 sequence (looked up): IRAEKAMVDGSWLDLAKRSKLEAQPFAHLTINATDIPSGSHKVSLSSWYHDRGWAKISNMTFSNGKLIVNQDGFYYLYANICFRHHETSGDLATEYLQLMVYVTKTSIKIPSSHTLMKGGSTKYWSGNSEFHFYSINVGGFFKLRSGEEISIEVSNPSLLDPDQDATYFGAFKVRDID
assay.name: competition ELISA: RANKL (0.5 ug/ml) pre-incubated with the antibody, then binding to coated human RANK (8 ug/ml) detected; blocked partner RANK
endpoint.name: IC50 (µg/mL)
The figure you give is taken to be in µg/mL; do not add the unit.

Record excerpt, results attached:
# input Entry clone 227 rabbit anti-RANKL antibody (antibody, V domains shown) VH: QSLEESGGRLVKPDETLTLTCTVSGFSLYNYEINWVRQAPGKGLEWIGYIDVGSGTWYASWAKGRFTISKTSTTVDLKITSPTTEDTATYFCTRKYNPMDLWGPGTLVTVSS VL: DMTQTPASVEVAVGGTVTIKCQASQNIGSNLAWYQQKPGQPPKLLIYSTSTVASGVPSRFKGSGFGTQFTLTISGVQCDDAATYYCQQGYSAGNVNNPFGGGTEVVVK has what IC50?
# output 0.0643

# input Entry clone 220 rabbit anti-RANKL antibody (antibody, V domains shown) VH: QSLEESGGRLVTPGTPLTLTCTVSGFSLSKYEINWVRQAPGKGLEWIGYIDVGSGTWYASWAKGRFTISKTSTTVALRITSPTTEDTATYFCSRQYNPMDLWGPGTLVTVSS VL: DMTQTPASVEAAVGGTVTIKCQASQNIGSNLAWYQQKPGQRPKLLIYSASTLASGVPSRFKGSGSGTQFTLTISGVQCDDAATYYCQQGYSVGNVNNAFGGGTEVVVK has what IC50?
# output 0.0648

# input Entry clone 246 rabbit anti-RANKL antibody (antibody, V domains shown) VH: QSVKESGGGLVTPGGTLTLTCTASGLSLSGNGMSWVRQAPGKGLEWIGYIYSGSSPYYASWAKGRFTISKTSSTTVDLKMTSLTTEDTATYFCARHTSGGGWYLDIWGPGTLVTVSL VL: DMIQTPASVEVAVGGTVTINCQASQSIGSNLAWYQQKPGQPPKLLIYSASTLASGVSSRFKGSGSGTDYTLTISDVECTDAATYYCQQAYSISNVENPFGGGTEVVVK has what IC50?
# output 0.486

# input Entry clone 270 rabbit anti-RANKL antibody (antibody, V domains shown) VH: QSVEESGGRLVTPGTPLTLTCTVSGFSLSSDVMSWVRQAPGKGLDWIGYIWSGGRPYYANWAKGRFTISKSSSTTVDLKITSPTTEDTAAYFCARGFGSSGLNIWGPGTLVTVSL VL: DMTQTPASVEVAVGGTVTIKCQASQNIGYNLAWYQQKPGQPPKLLIYGASTLASGVPSRFKGSGSGTQFTLTISGVQCDDAATYYCQQGYSVSNIDNAFGGGTEVVVK has what IC50?
# output 0.058

# input Entry clone 238 rabbit anti-RANKL antibody (antibody, V domains shown) VH: QEQLKESGGGLVTPGGTLTLTCTASGFSLNTNAMSWVRQAPGKGLEWIGYIYSGGSPYYANWAKGRFTISRTSTTVHLKMTSLTTEDTATYFCASHTSGGGWYLDIWGPGTLVTVSL VL: DMIQTPASVEVAVGGTVTINCQASQNIGSNLAWYQQKPGQPPKLLIYGTSTLASGVSSRFKGSGFGTQFTFTISDVECTDAATYYCQQAYSTSKIDNAFGGGTEVVVK has what IC50?
# output 0.0596

// below: IC50 requested for another binder
# input Entry clone 256 rabbit anti-RANKL antibody (antibody, V domains shown) VH: QSLEESGGRLVTPGTPLTLTCTVSGFSLSKYEINWVRQAPGKGLEWIGYIDVGSGTWYASWAKGRFTISKTSTTVALRITSPTTEDTATYFCSRQYNPMDLWGPGTLVTVSS VL: DMTQTPASVEAAVGGTVTIKCQASQNIGSNLAWYQQKPGQRPKLLIYSASTLASGVPSRFKGSGSGTQFTLTISGVQCDDAATYYCQQGYSVGNVNNAFGGGTEVVVK has what IC50?
# output 0.0508
